Test system: MDA-MB-468 breast
Experiment: NCI tumour cell line growth inhibition, 48 h
metric.name: GI50

Request: State, in one line, measured GI50 of COc1ccc(NC(=O)[C@H](C)NC(=O)OC(C)(C)C)cc1C(=O)Nc1cccc(-c2cc(=O)c3c(OC)c(OC)c(OC)cc3o2)c1
Response: 2250 nM

Request: Tell us which GI50 value is on record for COc1cc2c(c(OC)c1OC)-c1ccc([O-])c(=O)cc1[C@@H](NC(C)=O)CC2.COc1cc2c(c(OC)c1OC)-c1ccc([O-])c(=O)cc1[C@@H](NC(C)=O)CC2.[Cu+2]
Response: 4700 nM

Request: Check the records and state GI50 for COc1ccc(C(=S)c2cc(OC)c(OC)c(OC)c2)cc1OC(=O)CCl
Response: 96.4 nM

Request: Let me know recorded GI50 for O=c1ncc(-c2ccc(C(F)(F)F)cc2)c(NC2CCCCCC2)[nH]1 , thanks.
Response: 21000 nM

Request: Output GI50 of Nc1ccccc1NC(=O)c1ccc(CSc2nc(N3CCOCC3)c3cccn3n2)cc1
Response: 1720 nM

Request: Supply recorded GI50 for CCC1CCc2nc3sc(C(=O)Nc4ccccc4F)c(N)c3cc2C1 (stereo not drawn) here.
Response: 347 nM

Request: Quote GI50 reported for CS(=O)(=O)c1ccc(N/N=C/c2c(-c3ccc(S(C)(=O)=O)cc3)[nH]c3ccc(F)cc23)cc1 please.
Response: 3490 nM

Request: Dear colleague, please send me the reported GI50 for Nc1ncc(-c2cnn(C3CCNCC3)c2)cc1-c1nc2ccccc2o1 when you can.
Response: 367 nM
